molecular target: Bifunctional epoxide hydrolase 2 (Homo sapiens); test: Inhibition of human soluble epoxide hydrolase in HEK293 cells assessed as DHET production; assay type: cell-based
Sequence (P34913 whole entry): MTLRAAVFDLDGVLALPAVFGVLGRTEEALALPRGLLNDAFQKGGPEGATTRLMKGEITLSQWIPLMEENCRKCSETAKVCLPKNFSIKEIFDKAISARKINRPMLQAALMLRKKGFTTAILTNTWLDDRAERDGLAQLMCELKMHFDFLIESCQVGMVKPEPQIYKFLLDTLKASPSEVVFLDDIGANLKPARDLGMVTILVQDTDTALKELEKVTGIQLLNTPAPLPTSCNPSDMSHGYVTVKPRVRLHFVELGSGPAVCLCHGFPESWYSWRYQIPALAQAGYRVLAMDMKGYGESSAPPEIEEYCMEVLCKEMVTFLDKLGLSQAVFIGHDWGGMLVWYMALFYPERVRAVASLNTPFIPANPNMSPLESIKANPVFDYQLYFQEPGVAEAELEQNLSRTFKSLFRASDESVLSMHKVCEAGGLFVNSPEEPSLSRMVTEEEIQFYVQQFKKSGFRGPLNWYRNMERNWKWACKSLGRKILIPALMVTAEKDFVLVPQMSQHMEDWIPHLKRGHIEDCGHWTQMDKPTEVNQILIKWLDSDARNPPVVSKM
measured metric: pIC50
One number for each entry, as −log10 of the molar value.

Each of the following entries comes with a recorded value; kindly state pIC50 for each.
1. O=C(O)CCC1(c2ccccc2)CCCN(C(=O)Nc2ccc(Cl)cc2)C1 (stereo in doubt; 2b)
2. O=C(O)CCC1(c2ccccc2)CCCN(C(=O)Nc2ccc(Cl)cc2)C1 (stereo in doubt)

1: 8.40; 2: 8.70

----------
assay: Inhibition of potassium channel IKr
Please provide measured IC50 for the entries that follow.
Answers are plain numbers, in µM.

| molecule | measured metric | quantity unit | endpoint result |
| --- | --- | --- | --- |
| CC1(c2ccccc2)CCCN(C(=O)NCc2ccc(-c3cccc(Cl)c3)cc2)C1 (centres undefined) | IC50 | µM | 2 |
| CC1(c2ccccc2)CCCN(C(=O)NCc2ccc(-c3ccc4[nH]ccc4c3)cc2)C1 (centres undefined) | IC50 | µM | 0.8 |
| CNC(=O)CCC1(c2ccccc2)CCCN(C(=O)Nc2ccc(Cl)cc2)C1 (centres undefined) | IC50 | µM | 8 |
| CC1(c2ccccc2)CCCN(C(=O)NCCc2ccc3nccnc3c2)C1 (centres undefined) | IC50 | µM | 9 |
| N#CCCC1(c2ccccc2)CCCN(C(=O)Nc2ccc(Cl)cc2)C1 (centres undefined) | IC50 | µM | 10 |
| O=C(O)CCC1(c2ccc(-c3ccccc3)cc2)CCCN(C(=O)Nc2ccc(OC(F)(F)F)cc2)C1 (centres undefined) | IC50 | µM | 21 |

Here are 2 molecules. What values of IC50 were reported for them?
1. O=C(Nc1ccc(Cl)cc1)N1CCCC(CCO)(c2ccccc2)C1 (centres undefined)
2. CC1(c2ccccc2)CCCN(C(=O)NCCc2ccc3nc[nH]c3c2)C1 (centres undefined)

1: 0.07; 2: 13
